Reference for the values: patent US4716162A

# Tested on: arrhythmias induced by ischemic cardiac dysfunction caused by ligation of the coronary arteries of a perfusing heart
# Assay Method Text: Anti-arrhythmic effect: protection against arrhythmias induced by ischemia (coronary artery ligation and re-perfusion) of a perfusing heart, method of Opie et al
# Parameters: species or system male rats of Sprague-Dawley strain
# Condition Details: rat perfusing heart, test compound administered intravascularly; read-out: ED70 (concentration required for 70% suppression of the arrhythmias during ligation and after re-perfusion)
Counter-ions that a name gives are not always drawn.

Compound: CC(C)N(CCC(C(N)=O)(c1ccccc1)c1ccccn1)C(C)C (stereo not shown) [Disopyramide, reference compound]
EC70 (µg/mL): 10
//
Compound: C[C@@]12C3=C[C@@H](N)[C@@H]4CC[C@H](CC(=O)N1c1ccccc13)[C@@H]42 (relative stereo) [Compound No. 26, hydrochloride]
EC70 (µg/mL): 0.9
//
Compound: CCN(CC)CC(=O)Nc1c(C)cccc1C [Lidocaine, reference compound]
EC70 (µg/mL): 5
//
Compound: CC[C@@]12CCC[C@H]3[C@H](N)Cc4c(n(c5ccccc45)C(=O)C1)[C@H]32 (relative stereo)
EC70 (µg/mL): 0.16
